- Tested on: SF-268
- assay-comment: NCI tumour cell line growth inhibition, 48 h
The source made the active and inactive calls. No stated cut-off is given here; in the data, active = GI50 up to about 1.1 µM and inactive = higher.
Outcomes: active, inactive

>  <compound>
Cc1ccc(-c2c(C#N)c(-c3ccccc3)n(NS(=O)(=O)c3ccc(C)cc3)c(=O)c2C#N)cc1

>  <label-class>
inactive

$$$$
>  <compound>
N#C/C(=C\NC(=S)Nc1ccc(S(=O)(=O)Nc2ccccn2)cc1)C(N)=O

>  <label-class>
inactive

$$$$
>  <compound>
CC(=O)NC(c1nc2cc(C)c(C)cc2[nH]1)c1nc2cc(C)c(C)cc2[nH]1

>  <label-class>
inactive

$$$$
>  <compound>
O=C(Nc1ccccc1F)c1cc2ccc(O)cc2o/c1=N\c1cccc(C(F)(F)F)c1

>  <label-class>
inactive

$$$$
>  <compound>
Cc1ccc(/N=N/C(=O)NNc2ccc(C)c([N+](=O)[O-])c2)cc1[N+](=O)[O-]

>  <label-class>
inactive

$$$$
>  <compound>
OCC1OC(O[C@H]2CN3[C@H](O)[C@@H](O)[C@H](O)[C@H]3C2O)C(O)C(O)C1O (stereo not given in full)

>  <label-class>
inactive

$$$$
>  <compound>
S=C1/C(=N/c2ccccc2)N(c2ccccc2)/C(=N\c2cccc[n+]2Cc2ccccc2)N1c1ccccc1

>  <label-class>
inactive

$$$$
>  <compound>
CCOC(=O)/C(C(=O)c1ccccc1)=C1\N[C@H](C(=O)OCC)CS1

>  <label-class>
inactive

$$$$
>  <compound>
S=CN1CCCCC1

>  <label-class>
inactive

$$$$
>  <compound>
COc1cc([C@H]2c3cc(O)c(OC)cc3C[C@]3(O)[C@@H]2CO[C@@H]3O)ccc1O

>  <label-class>
inactive

$$$$
>  <compound>
NC(=S)NS(=O)(=O)c1ccc(Cl)cc1

>  <label-class>
inactive

$$$$
>  <compound>
c1ccc(C(=NNc2nc3ccccc3[nH]2)c2ccccn2)nc1

>  <label-class>
active

$$$$
>  <compound>
N#CC(C#N)c1ccc(C(=O)N2CCC[C@H]2CO)cc1

>  <label-class>
inactive

$$$$
>  <compound>
O=C1c2ccccc2C(=O)c2c1ccc1c2OCO1

>  <label-class>
inactive

$$$$
>  <compound>
O=C(O)c1nc2cc(C(F)(F)F)ccc2[nH]c1=O

>  <label-class>
inactive

$$$$
>  <compound>
CSc1nc(SC)c2cnn(CC3CO3)c2n1 (stereo not given)

>  <label-class>
inactive

$$$$
>  <compound>
COC(=O)c1c(C)cccc1C1CN=NC12Cc1ccc(C)c(C)c1C2=O (stereo not given)

>  <label-class>
inactive

$$$$
>  <compound>
Cc1cc2nc3c(C#N)c(-c4ccccc4)cc(Nc4cccc(C(F)(F)F)c4)n3c2cc1C

>  <label-class>
inactive

$$$$
>  <compound>
O=C(O)[C@@H]1OCCOCCO[C@@H](C(=O)O)[C@H](C(=O)O)OCCOCCO[C@H]1C(=O)O

>  <label-class>
inactive

$$$$
>  <compound>
COc1ccc(/N=N/c2c(O)ccc3ccccc23)cc1

>  <label-class>
inactive

$$$$
>  <compound>
O=C(O)Cn1ccc(=O)c2c([N+](=O)[O-])cccc21

>  <label-class>
inactive

$$$$
>  <compound>
NN1C(=O)C(CCO)S/C1=N/N=C1/SC(CCO)C(=O)N1N (stereo not given)

>  <label-class>
inactive

$$$$
>  <compound>
CCOC(=O)/C=C(/OCC)[C@@H]1C(C(=O)c2ccc(Cl)cc2)[C@H]1/C(=C\C(=O)OCC)OCC (stereo not given in full)

>  <label-class>
inactive

$$$$
>  <compound>
CCOC(=O)C1=C(OC(OCC)C(CC)[Se]c2ccccc2)CCC1 (stereo not given)

>  <label-class>
inactive

$$$$
>  <compound>
COc1cc2oc3ccccc3c(=O)c2cc1CSc1ccccc1N

>  <label-class>
inactive

$$$$
